# System: NCI-H2228
# Assay info: relative viability (nuclei count vs DMSO), 5 days (fraction); higher = more cells survive
# Condition context: first compound 0.003162 µM
Measurement type: relative viability

>>> observed_value("Cc1cn(-c2cc(NC(=O)c3ccc(C)c(Nc4nccc(-c5cccnc5)n4)c3)cc(C(F)(F)F)c2)cn1 [Nilotinib] + N=C(N)NC(=N)NCCc1ccccc1 [Phenformin] (partner 250 µM)")
0.388
>>> observed_value("Cc1cn(-c2cc(NC(=O)c3ccc(C)c(Nc4nccc(-c5cccnc5)n4)c3)cc(C(F)(F)F)c2)cn1 [Nilotinib] + COc1cccc2cc(-c3nc([C@H]4CC[C@H](C(=O)O)CC4)n4ncnc(N)c34)[nH]c12 [OSI-027] (partner 0.5 µM)")
0.631
>>> observed_value("Cc1cn(-c2cc(NC(=O)c3ccc(C)c(Nc4nccc(-c5cccnc5)n4)c3)cc(C(F)(F)F)c2)cn1 [Nilotinib] + CC1(C)CCC(c2ccc(Cl)cc2)=C(CN2CCN(c3ccc(C(=O)NS(=O)(=O)c4ccc(N[C@H](CCN5CCOCC5)CSc5ccccc5)c(S(=O)(=O)C(F)(F)F)c4)cc3)CC2)C1 [Navitoclax] (partner 0.5 µM)")
1.1
>>> observed_value("Cc1cn(-c2cc(NC(=O)c3ccc(C)c(Nc4nccc(-c5cccnc5)n4)c3)cc(C(F)(F)F)c2)cn1 [Nilotinib] + O=C(CCCCCCC(=O)Nc1ccccc1)NO [Vorinostat] (partner 1 µM)")
0.616

Origin of values: the supplement of paper PMC10307832
